System Under Test: CIB1 and αIIb interaction (CIB1-GST : F-αIIb peptide) (Homo sapiens)
Construct: made in house; host or cells: BL-21 plus RIL cells (E. coli)
Sequence (Q99828 1-191): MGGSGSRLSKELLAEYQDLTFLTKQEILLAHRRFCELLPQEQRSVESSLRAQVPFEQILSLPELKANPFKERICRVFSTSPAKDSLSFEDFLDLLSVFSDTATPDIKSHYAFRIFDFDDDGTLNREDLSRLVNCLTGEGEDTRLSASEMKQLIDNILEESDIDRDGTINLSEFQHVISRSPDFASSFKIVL
Measurement Description: FP assay, 1536-well qHTS format (primary and confirmatory screen)
Type: binding
Protocol Conditions: confirmatory screen, qHTS curve class; negative sign = inhibitory curve
Give Curve Class (confirmatory screen) for every item shown.
One number for each entry.

Use these answered entries as a reference point.
{"columns": ["Compound", "Curve Class (confirmatory screen)"],
 "data": [
  ["Cl.O=[N+]([O-])c1ccc(CNc2ccc(S(=O)(=O)Nc3nccs3)cc2)c(O)c1 [NCGC00273519-01]", -2.4],
  ["CCOC(=O)c1cc(-c2ccco2)nc2c1c(C)nn2CCC#N.O=C(O)C(F)(F)F [NCGC00037529-03]", -2.2],
  ["COc1cc(C=C2C(=O)Nc3ccccc32)cc(OC)c1O [NCGC00343740-01]", -2.2]
]}

Items follow; give Curve Class (confirmatory screen) for each.
1. O=C(O)CSc1cc(NS(=O)(=O)c2ccc(Br)cc2)c2ccccc2c1O [NCGC00386409-01]
2. Oc1ccc2c(-c3c(-c4ccccn4)nn4c3CCC4)ccnc2c1 [NCGC00408881-01]
3. Cc1ccc(S(=O)(=O)Nc2cnccc2C(=O)Nc2ccc(-c3nnn[nH]3)cc2)cc1.O=C(O)C(F)(F)F [NCGC00343837-01]
4. O=C(Nc1nc(-c2ccccc2)cs1)c1ccncc1NS(=O)(=O)c1cccs1.O=C(O)C(F)(F)F [NCGC00345032-01]
5. Oc1ccc(Cl)cc1Cc1cc(Cl)ccc1O [NCGC00091325-09]
6. CN(C)c1ccc(NC(=S)N/N=C2\C(=O)Nc3ccccc32)cc1.O=C(O)C(F)(F)F [NCGC00229526-01]
7. COc1ccc(NC(=O)c2[nH]c(C)c(C(C)=O)c2C)cc1S(=O)(=O)Nc1ccccc1C#N [NCGC00348145-01]
8. CNc1ccc(C(=O)Oc2cc(ON=[N+]([O-])N(C)C)c([N+](=O)[O-])cc2[N+](=O)[O-])cc1 [NCGC00168169-02]

## Output
1. -1.1
2. -2.2
3. -2.4
4. -1.2
5. -2.2
6. -1.4
7. -2.2
8. -1.2

Items follow; give Curve Class (confirmatory screen) for each.
1. O=C(O)c1ccc(-n2cccc2/C=C2\SC(=O)N(Cc3cccc(Cl)c3)C2=O)cc1 [NCGC00182735-01]
2. NC(=O)c1ccnc2c(O)cccc12.O=C(O)C(F)(F)F [NCGC00183783-01]

## Output
1. -2.1
2. -2.4

## Input Fill in the blank: the reported Curve Class (confirmatory screen) of CN1CCN(c2cccc(Nc3nn4c(=O)c5ccc(Br)cc5nc4s3)c2)CC1.Cl [NCGC00187814-01] is ____.
## Output -2.4
